studySystem: T1, CD27 expressed on the cell surface (HT1080_CD27 cells) (human, UniProt P26842 20-260); also: test concentration or dose not given here
T1 sequence (looked up): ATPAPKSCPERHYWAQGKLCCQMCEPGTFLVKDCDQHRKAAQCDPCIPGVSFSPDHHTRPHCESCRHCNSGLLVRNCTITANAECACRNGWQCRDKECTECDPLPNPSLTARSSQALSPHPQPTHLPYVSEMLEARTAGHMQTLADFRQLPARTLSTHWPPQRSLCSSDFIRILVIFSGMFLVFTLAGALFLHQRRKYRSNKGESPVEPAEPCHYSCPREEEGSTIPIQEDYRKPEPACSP
testDescription: cell-based or functional assay
Give measured IL-8 [abs. corr.] for each item. Keep answers brief.

Quick check: IL-8 [abs. corr.] of P018.S.07.A.C02 (antibody, V domains shown, V regions on human Ig constant parts; also called AB27_119) VH: QSVEESGGRLVTPGTPLTLTCTASGFSLSSYHMCWVRQAPGKGLEWIGIIYAGSGNTWYASWAKGRFTISKTSTTVDLKITSPTTEDTATYFCARQPGGGASDTQLDLWGQGTLVTVSS VL: AAVLTQTPSPVSAAVGGTVTINCQSSQSVFDNNQLSWFQHKPGQSPKLLIYRASTLASGVPSRFKGSGSGTQFTLTISDLESDDAATYYCLGGYSSSSDTVFGGGTEVVVE ? 0.735 abs. corr.

Quick check: IL-8 [abs. corr.] of P018.S.08.A.H02 (antibody, V domains shown, V regions on human Ig constant parts; also called AB27_142) VH: QSLEESGGRLVTPGTPLTLTCTASGFSLSYYYMTWVRQAPGKGLEWIGITGGGGDTYYGTWAKGRFTISKTSTTVDLKMTSPTTEDTATYFCARGTDGAAHTGFALWGQGTLVTVSS VL: DIVMTQTPASVEAAVGGTVTIKCQASEDISSRLSWYQQKPGQPPKLLIYLASTLASGVPSRFKGSGSGTQFTLTISDLESADAATYYCQSSSYGTSTIYGTFGGGTEVVVK ? 0.328 abs. corr.

Quick check: IL-8 [abs. corr.] of P018.S.04.A.F04 (antibody, V domains shown, V regions on human Ig constant parts; also called AB27_77) VH: QSVEESGGRLVTPGTPLTLTCTVSGFSLSNYAMSWVRQAPGKGLEWIGIIYASGTTYYARWAKGRFTISRTSTTVDLKISSPTTEDTATYFCAREYDSYDYAYGSSIYAFDPWGPGTLVTVSS VL: AYDMTQTPSSVSAAVGGTVTIKCQASESIYSNLAWYQQKPGQRPKLLIYRASTLASGVSSRFKGSGSGTQFTLSISGVESADAATYYCQQGYSSSNVDNVFGGGTEVVVK ? 1.6 abs. corr.
